Cited source for all entries: PubChem BioAssay AID540271

- System: S. cerevisiae expressing PfHSP40, growth rescue, plate reader
- experimentNotes: Yeast growth rescue from Plasmodium falciparum HSP40 toxicity, dose response confirmatory, plate reader (AID 540271);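 note: yeast growth read after three days of incubation at 30 °C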
measuredQuantity: AC50

                                    molecule  measuredquantity  reportedvalue
 0  O=C1N(c2ccc(Cl)cc2)C(c2cccnc2)N2CCCN12 (configuration not stated)              AC50        6.03 µM
 1  CCC(=O)NC(c1ccco1)c1cc(Cl)c2cccnc2c1O (configuration not stated)              AC50        2.99 µM
 2  Cc1cccc(NC(=S)NC(C)CCc2ccccc2)c1 (configuration not stated)              AC50        7.92 µM
 3  CCC(=O)NC(c1cc(Cl)c2cccnc2c1O)C(C)C (configuration not stated)              AC50        5.29 µM
 4  CCOC(=O)c1ccc(NC(=O)CC2C(=O)OCCN2CC)cc1 (configuration not stated)              AC50        4.66 µM
 5  O=C(O)c1ccc(N/N=C/C2=C(N3CCOCC3)C(=C\c3ccccc3)/CC2)cc1              AC50        6.18 µM
 6  O=C1c2ccccc2NC(c2ccc(-c3ccc(C(F)(F)F)cc3)o2)N1O (configuration not stated)              AC50         2.4 µM
 7  COc1ccc(C(=O)c2c(C(F)(F)F)oc3c2C(=O)c2ccccc2C3=O)cc1OC              AC50        6.24 µM
 8  CCCCn1c(=O)c(C(=O)NCc2ccncc2)c(O)c2ccccc21              AC50        4.99 µM
 9  Cc1cccc2sc(NNC(=O)c3ccc(S(=O)(=O)N4CC(C)CC(C)C4)cc3)nc12 (configuration not stated)              AC50        1.65 µM
10         N#C/C(=C\Nc1ccccc1O)c1nc2ccccc2o1              AC50        9.96 µM
11              O=C(NOC(=O)c1ccccc1)c1ccccc1              AC50        2.11 µM
12     COc1ccc(O)c(C(=O)CC(=O)c2ccc(F)cc2)c1              AC50       0.977 µM
13  Cc1oc2c(c1C(=O)c1ccccc1)C(=O)C(=O)c1ccccc1-2              AC50        5.65 µM
14  Cc1ccc(C)c(S(=O)(=O)N2CCN(Cc3ccc(O)c4ncccc34)CC2)c1              AC50        5.23 µM
15  COc1cccc(/C=N/Nc2ncnc3scc(-c4ccccc4)c23)c1O              AC50         1.7 µM
16    C=CCN(CC=C)C(=S)NC(=O)c1ccc(OC)c(Br)c1              AC50        7.96 µM
17  C=CS(=O)(=O)c1sc(Cl)c(N2CCOCC2)c1[N+](=O)[O-]              AC50        1.91 µM
18  O=C(c1ccccc1)c1ccc(Cn2cc(-c3ccccc3)nn2)cc1              AC50        4.34 µM
19  CCCCCCCCCCOC(=O)Cn1c(COc2ccc(OC)cc2)[n+](C)c2ccccc21              AC50        6.37 µM
20  CCC(Oc1ccccc1)C(=O)Nc1ncc([N+](=O)[O-])s1 (configuration not stated)              AC50        6.83 µM
21  Cc1ccc([C@@H]2CC=C(C(=O)O)[C@H](c3ccc(Br)cc3)N2S(=O)(=O)c2ccccc2C)cc1              AC50        5.21 µM
